Tested on: LOVO cells
Assay summary: LOVO CTG proliferation assay (120 h) (CRC, G13D)
Format: cell-based
Setup conditions: Homo sapiens, CTG 120 h
Observable: IC50 (nM)
Give just the numeric value; nM need not be written.

Field: example entries. Status: answers known.
{"columns": ["Smiles code", "Target under test", "IC50 (nM)"],
 "data": [
  ["C[C@H](Oc1cc([C@H]2CCOC2)nc(-c2noc3c2CCC[C@@]32CCCc3sc(N)c(C#N)c32)n1)[C@@H]1CCCN1C", "LOVO cells", 62],
  ["C[C@H](Oc1cc(N2CC(N(C)C)C2)nc(-c2noc3c2CCC[C@@]32CCCc3sc(N)c(C#N)c32)n1)[C@@H]1CCCN1C", "LOVO cells", 835]
]}

We now examine a further compound.
[in] Could you share which IC50 value was measured for C[C@H](Oc1cc(-n2ccc(-c3cn([C@H]4CCOC4)nn3)n2)nc(-c2noc3c2CCC[C@@]32CCCc3sc(N)c(C#N)c32)n1)[C@@H]1CCCN1C ?
[out] 35

====

# pIC50 annotations
Target under test: KRAS (G12D)::SOS1 (Homo sapiens (Human), UniProt P01116, G12D)
Sequence (P01116 other isoform, or with tags, fused parts or gaps G12D): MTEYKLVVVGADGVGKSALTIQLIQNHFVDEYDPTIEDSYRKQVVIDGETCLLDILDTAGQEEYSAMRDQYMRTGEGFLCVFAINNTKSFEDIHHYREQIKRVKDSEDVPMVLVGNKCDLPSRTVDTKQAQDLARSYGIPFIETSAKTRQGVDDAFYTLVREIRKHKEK
Assay summary: KRAS::SOS1 AlphaScreen binding assay, KRAS G12D
The value called pIC50 is obtained by taking minus log10 of the concentration in mol/L.

Field: example entries. Status: answers known.
{"columns": ["Compound", "Observable", "Readout value"],
 "data": [
  ["C[C@H](Oc1cc(-n2cc3c(n2)CCN(C)C3)nc(-c2noc3c2CCC[C@@]32CCCc3sc(N)c(C#N)c32)n1)[C@@H]1CCCN1C [II-141]", "pIC50", 8.70],
  ["C[C@H](Oc1cc(N2C[C@@H](N(C)C)[C@@H](F)C2)nc(-c2noc3c2CCC[C@@]32CCCc3sc(N)c(C#N)c32)n1)[C@@H]1CCCN1C [II-11]", "pIC50", 9.00],
  ["C[C@H](Oc1cc(N2CCN(C)C3(CC3)C2)nc(-c2onc3c2CCC[C@@]32CCCc3sc(N)c(C#N)c32)n1)[C@@H]1C[C@@H](F)CN1C [I-39]", "pIC50", 9.00],
  ["C[C@H](Oc1cc(N2CCN(C)C3(CCC3)C2)nc(-c2onc3c2CCC[C@@]32CCCc3sc(N)c(C#N)c32)n1)[C@@H]1CCCN1C [I-44]", "pIC50", 8.70],
  ["C[C@H](Oc1cc(N2CCN(CCO)CC2)nc(-c2noc3c2CCC[C@@]32CCCc3sc(N)c(C#N)c32)n1)[C@@H]1CCCN1C [II-8]", "pIC50", 9.00]
]}

[in] Could you share which pIC50 value was measured for C[C@H](Oc1cc(-c2ccccn2)nc(-c2noc3c2CCC[C@@]32CCCc3sc(N)c(C#N)c32)n1)[C@@H]1CCCN1C [II-85] ?
[out] 8.70

====

Test system: AsPC-1 cells
Assay summary: AsPC-1 CTG proliferation assay (120 h) (pancreatic cancer, G12D)
Type: cell-based
Setup conditions: Homo sapiens, ASPC1
# pIC50 annotations
The value called pIC50 is obtained by taking minus log10 of the concentration in mol/L.

Field: example entries. Status: answers known.
{"columns": ["Compound", "pIC50"],
 "data": [
  ["CO[C@H]1CCN(C)[C@@H]1[C@H](C)Oc1cc(N2CCN(C)C3(CC3)C2)nc(-c2noc3c2CCC[C@@]32CCCc3sc(N)c(C#N)c32)n1 [II-186]", 7.42],
  ["C[C@H](Oc1cc(N2CCNC3(COC3)C2)nc(-c2noc3c2CCC[C@@]32CCCc3sc(N)c(C#N)c32)n1)[C@@H]1C[C@@H](F)CN1C [II-150]", 7.57],
  ["C[C@@H]1CN(c2nc(-c3noc4c3CCC[C@@]43CCCc4sc(N)c(C#N)c43)nc(O[C@@H](C)[C@@H]3C[C@@H](F)CN3C)c2F)CC2(CC2)N1 [II-158]", 6.59],
  ["CO[C@@H]1C[C@@H]([C@H](C)Oc2cc(-n3ccnc3)nc(-c3noc4c3CCC[C@@]43CCCc4sc(N)c(C#N)c43)n2)N(C)C1 [II-58]", 5.19]
]}

[in] Could you share which pIC50 value was measured for C[C@H](Oc1cc(-c2ccn(C[C@H]3CCOC3)n2)nc(-c2noc3c2CCC[C@@]32CCCc3sc(N)c(C#N)c32)n1)[C@@H]1CCCN1C [II-129] ?
[out] 5.68

[in] Could you share which pIC50 value was measured for CC(C)NC(=O)Cc1ccn(-c2cc(O[C@@H](C)[C@@H]3CCCN3C)nc(-c3noc4c3CCC[C@@]43CCCc4sc(N)c(C#N)c43)n2)n1 [II-182] ?
[out] 6.73

====

Test system: KRAS G12C-dependent Ba/F3 cells
Assay summary: Ba/F3 proliferation assay, KRAS G12C
Type: cell-based
Setup conditions: Mus musculus, BaF3, 72 h, AlamarBlue
Procedure: Plasmids containing KRASG12 mutants (i.e. […], G12C, G12V) are obtained from GeneScript. To generate KRASG12-dependent Ba/F3 models, Ba/F3 cells are transduced with retroviruses containing vectors that harbor KRASG12 isoforms. […] Compounds are added using an Access Labcyte Workstation with a Labcyte Echo 550 or 555 accoustic dispenser. […] AlamarBlue™ (ThermoFisher), a viability stain, is added and fluorescence measured in the PerkinElmer Envision HTS Multilabel Reader. […]
// classify: if (IC50 < 70 nM) YES else NO

[in] State whether 70 nM exceeds IC50 recorded for CO[C@H]1CCN(C)[C@@H]1[C@H](C)Oc1cc(-n2ccc(CC(=O)NC(C)C)n2)nc(-c2noc3c2CCC[C@@]32CCCc3sc(N)c(C#N)c32)n1 [II-183] .
[out] YES

[in] State whether 70 nM exceeds IC50 recorded for C[C@H](Oc1cc(-c2ccn(C[C@@H](C)O)n2)nc(-c2onc3c2CCC[C@@]32CCCc3sc(N)c(C#N)c32)n1)[C@@H]1CCCN1C [I-30] .
[out] YES

[in] State whether 70 nM exceeds IC50 recorded for C[C@H]1CNCCCN1c1nc(-c2onc3c2CCC[C@@]32CCCc3sc(N)c(C#N)c32)cc(C(F)(F)F)n1 [I-15] .
[out] NO

[in] State whether 70 nM exceeds IC50 recorded for C[C@H](Oc1cc(N2CCNC3(CC3)C2)nc(-c2noc3c2CCC[C@@]32CCCc3sc(N)c(C#N)c32)n1)[C@@H]1CCCN1C [II-54] .
[out] NO

[in] State whether 70 nM exceeds IC50 recorded for CO[C@H]1CCN(C)[C@@H]1[C@H](C)Oc1cc(N2CCNC3(CC3)C2)nc(-c2noc3c2CCC[C@@]32CCCc3sc(N)c(C#N)c32)n1 [II-184] .
[out] NO

[in] State whether 70 nM exceeds IC50 recorded for Cc1nc(-c2cc(O[C@@H](C)[C@@H]3CCCN3C)nc(-c3noc4c3CCC[C@@]43CCCc4sc(N)c(C#N)c43)n2)cs1 [II-103] .
[out] YES

====

System: SAS cells
Assay summary: SAS CTG proliferation assay (120 h) (HNSCC, wt amplified)
Assay type: cell-based
Observable: pIC50
The value called pIC50 is obtained by taking minus log10 of the concentration in mol/L.

{"columns": ["Molecule", "Target under test", "Observable", "Readout value"],
 "data": [
  ["C[C@H](Oc1nc(-c2noc3c2CCC[C@@]32CCCc3sc(N)c(C#N)c32)nc(N2CCNC3(CC3)C2)c1Cl)[C@@H]1C[C@@H](F)CN1C [II-156]", "SAS cells", "pIC50", 6.36],
  ["CC(C)N1CCCN(c2cc(-n3ccnc3)nc(-c3noc4c3CCC[C@@]43CCCc4sc(N)c(C#N)c43)n2)[C@@H](C)C1 [II-169]", "SAS cells", "pIC50", 5.36],
  ["CO[C@H]1CCN(C)[C@@H]1[C@H](C)Oc1cc(-n2ccc(CC(=O)NC(C)C)n2)nc(-c2onc3c2CCC[C@@]32CCCc3sc(N)c(C#N)c32)n1 [I-48]", "SAS cells", "pIC50", 7.89],
  ["C[C@H](Oc1cc(N2CCc3cccnc32)nc(-c2noc3c2CCC[C@@]32CCCc3sc(N)c(C#N)c32)n1)[C@@H]1CCCN1C [II-90]", "SAS cells", "pIC50", 5.36],
  ["C[C@H](Oc1cc(C2CCCO2)nc(-c2noc3c2CCC[C@@]32CCCc3sc(N)c(C#N)c32)n1)[C@@H]1CCCN1C (stereo partly shown) [II-44]", "SAS cells", "pIC50", 5.22],
  ["C[C@H](Oc1cc(-c2ccn3ncnc3c2)nc(-c2onc3c2CCC[C@@]32CCCc3sc(N)c(C#N)c32)n1)[C@@H]1CCCN1C [I-33]", "SAS cells", "pIC50", 7.09],
  ["C[C@H](Oc1cc(-c2ccc(N)nc2)nc(-c2noc3c2CCC[C@@]32CCCc3sc(N)c(C#N)c32)n1)[C@@H]1CCCN1C [II-101]", "SAS cells", "pIC50", 6.89],
  ["C[C@H](Oc1cc(-c2ccn(C[C@H]3CCOC3)n2)nc(-c2noc3c2CCC[C@@]32CCCc3sc(N)c(C#N)c32)n1)[C@@H]1CCCN1C [II-129]", "SAS cells", "pIC50", 7.74],
  ["C[C@H]1CN(C)CCCN1c1cc(N2CCN(C)CC2)nc(-c2noc3c2CCC[C@@]32CCCc3sc(N)c(C#N)c32)n1 [II-30]", "SAS cells", "pIC50", 4.97],
  ["COCc1cn(-c2cc(O[C@@H](C)[C@@H]3CCCN3C)nc(-c3noc4c3CCC[C@@]43CCCc4sc(N)c(C#N)c43)n2)nn1 [II-121]", "SAS cells", "pIC50", 6.25]
]}

[in] // map C[C@H](Oc1cc(N2CCNC[C@@]23CCOC3)nc(-c2noc3c2CCC[C@@]32CCCc3sc(N)c(C#N)c32)n1)[C@@H]1CCCN1C [II-51] to recorded pIC50 (system: SAS cells)
[out] 7.15

[in] // map C[C@H](Oc1cc(-c2ccccn2)nc(-c2noc3c2CCC[C@@]32CCCc3sc(N)c(C#N)c32)n1)[C@@H]1CCCN1C [II-85] to recorded pIC50 (system: SAS cells)
[out] 7.59

[in] // map CO[C@@H]1C[C@@H]([C@H](C)Oc2cc(-n3ccnc3)nc(-c3noc4c3CCC[C@@]43CCCc4sc(N)c(C#N)c43)n2)N(C)C1 [II-58] to recorded pIC50 (system: SAS cells)
[out] 6.47
